Ki, Proto-oncogene tyrosine-protein kinase Src (Homo sapiens), per-entry values.
experimentalReadout: Ki (nM)

INSERT INTO results (structureassmiles, recordednumber) VALUES
  ('Cc1cc(Nc2nc(-c3ccccc3)nc3ccccc23)n[nH]1', 81),
  ('CC(=O)Nc1ccc(Sc2nc(Nc3cc(C)n[nH]3)c3ccccc3n2)cc1', 1260);

====

# measuredTarget: Glycogen synthase kinase-3 beta (Homo sapiens, UniProt P49841)
# Sequence (P49841 whole entry): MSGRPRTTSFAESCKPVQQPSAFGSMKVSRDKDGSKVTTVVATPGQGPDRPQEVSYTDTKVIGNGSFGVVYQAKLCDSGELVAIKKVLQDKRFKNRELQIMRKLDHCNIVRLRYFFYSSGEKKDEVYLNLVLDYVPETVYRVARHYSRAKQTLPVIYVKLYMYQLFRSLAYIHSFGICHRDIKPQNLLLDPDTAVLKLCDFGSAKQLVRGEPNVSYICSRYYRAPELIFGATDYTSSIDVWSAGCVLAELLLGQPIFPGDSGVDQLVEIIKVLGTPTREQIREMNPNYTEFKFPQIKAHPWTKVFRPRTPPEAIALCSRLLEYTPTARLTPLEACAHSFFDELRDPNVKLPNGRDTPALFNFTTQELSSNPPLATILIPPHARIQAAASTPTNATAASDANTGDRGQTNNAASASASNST
pKi: −log10 of the molar value.
Reported pKi values for a set of compounds
experimentalReadout: pKi

INSERT INTO measurements (structureassmiles, measuredtarget, experimentalreadout, recordednumber) VALUES
  ('Cc1cc(Nc2nc(-c3ccccc3)nc3ccccc23)n[nH]1', 'Glycogen synthase kinase-3 beta (Homo sapiens, UniProt P49841)', 'pKi', 7.66),
  ('CC(=O)Nc1ccc(Sc2nc(Nc3cc(C)n[nH]3)c3ccccc3n2)cc1', 'Glycogen synthase kinase-3 beta (Homo sapiens, UniProt P49841)', 'pKi', 5.99);

====

# testName: Drug level in tumor bearing mouse plasma at 30 mg/kg after 24 hrs
# Type: ADME, organism-based
# Set-up: dose 30 mg/kg
# conditionInfo: read-out: Activity
experimentalReadout: concentration at 24 h

INSERT INTO assay_data (structureassmiles, result) VALUES
  ('O=C(O)c1ccc(Nc2ncc3c(n2)-c2ccc(Cl)cc2C(c2c(F)cccc2F)=NC3)cc1', '> 1000 nM');

====

# testName: Clearance in iv dosed rat
# Assay type: ADME, organism-based
# conditionInfo: in vivo
experimentalReadout: clearance (mL/min/kg)

INSERT INTO assay_data (structureassmiles, recordednumber) VALUES
  ('CCN(CCCOc1ccc2c(Nc3cc(CC(=O)Nc4cccc(F)c4)n[nH]3)ncnc2c1)CCOP(=O)(O)O', 14);

====

# testName: Elimination half life in iv infused tumor bearing mouse
# Assay type: ADME, organism-based
# conditionInfo: in vivo, read-out: beta t1/2 (converted)
experimentalReadout: half-life

INSERT INTO assay_data (structureassmiles, experimentalreadout, result) VALUES
  ('CO[C@@H](C(=O)N1Cc2n[nH]c(NC(=O)c3ccc(N4CCN(C)CC4)cc3)c2C1)c1ccccc1', 'half-life', '3.7 h');

====

# measuredTarget: Aurora kinase A (Homo sapiens, UniProt O14965)
# Sequence (O14965 whole entry): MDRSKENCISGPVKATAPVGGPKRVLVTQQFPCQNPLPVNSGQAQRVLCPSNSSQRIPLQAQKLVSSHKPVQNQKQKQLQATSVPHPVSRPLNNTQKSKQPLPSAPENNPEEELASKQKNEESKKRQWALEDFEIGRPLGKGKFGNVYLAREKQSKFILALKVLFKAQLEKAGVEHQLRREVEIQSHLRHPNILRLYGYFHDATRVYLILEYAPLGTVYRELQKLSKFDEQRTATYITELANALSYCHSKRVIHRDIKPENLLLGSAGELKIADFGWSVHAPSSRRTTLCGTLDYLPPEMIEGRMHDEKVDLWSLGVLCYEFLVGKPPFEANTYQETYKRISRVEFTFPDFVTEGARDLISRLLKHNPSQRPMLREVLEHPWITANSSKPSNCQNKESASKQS
Please note: IC50 exactly at 10 nM is class 0. Only values below 10 nM get class 1.

INSERT INTO results (structureassmiles, category) VALUES
  ('COc1cc2c(Nc3ncc(CC(=O)Nc4ccccc4)s3)ncnc2cc1OCCCN1CCOCC1', 'class 1'),
  ('CCC(=O)Nc1ccc(Sc2nc(Nc3cc(C)n[nH]3)cc(N3CCOCC3)n2)cc1', 'class 1'),
  ('CCC(=O)Nc1ccc(Sc2nc(Nc3cc(C)n[nH]3)cc(N3CCNCC3)n2)cc1', 'class 1'),
  ('CCN(CCO)CCCOc1cc2ncnc(Nc3cc(CC(=O)Nc4cccc(F)c4)[nH]n3)c2cc1OC', 'class 0'),
  ('CCC(=O)Nc1ccc(Sc2nc(Nc3cc(C)n[nH]3)cc(N3CCN(C(C)(C)C)CC3)n2)cc1', 'class 1'),
  ('COc1cc2c(Nc3ccc(C(=O)Nc4ccccc4)s3)ncnc2cc1OCCCN1CCOCC1', 'class 0'),
  ('CCCN(CCO)CCCOc1cc2ncnc(Nc3cc(CC(=O)Nc4cccc(F)c4)[nH]n3)c2cc1OC', 'class 0'),
  ('COc1cc2c(Nc3cc(CC(=O)Nc4cccc(F)c4F)[nH]n3)ncnc2cc1OCCCN(CCO)CC(C)C', 'class 0'),
  ('CCN(CCO)CCCOc1ccc2c(Nc3cc(CC(=O)Nc4cccc(F)c4F)[nH]n3)ncnc2c1', 'class 0'),
  ('CCN(CCO)CCCOc1cc2ncnc(Nc3cc(CC(=O)Nc4cccc(F)c4F)[nH]n3)c2cc1OC', 'class 0');

====

Protein target, amino acids: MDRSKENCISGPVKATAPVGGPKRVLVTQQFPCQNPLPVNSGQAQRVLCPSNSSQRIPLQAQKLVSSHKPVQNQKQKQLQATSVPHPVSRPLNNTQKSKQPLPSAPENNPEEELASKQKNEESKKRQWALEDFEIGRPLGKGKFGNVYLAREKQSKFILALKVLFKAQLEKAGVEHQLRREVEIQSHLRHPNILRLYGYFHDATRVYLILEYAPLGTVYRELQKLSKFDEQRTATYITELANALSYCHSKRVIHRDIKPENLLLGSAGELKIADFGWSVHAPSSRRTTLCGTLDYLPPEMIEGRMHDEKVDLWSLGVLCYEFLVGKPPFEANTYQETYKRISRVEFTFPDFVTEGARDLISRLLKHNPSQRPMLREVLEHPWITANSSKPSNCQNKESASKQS
pKi: −log10 of the molar value.
experimentalReadout: pKi

INSERT INTO results (structureassmiles, recordednumber) VALUES
  ('CC(=O)Nc1ccc(Sc2nc(Nc3cc(C)n[nH]3)c3ccccc3n2)cc1', 8.40);

====

# testName: Drug level in tumor bearing mouse tumor at 30 mg/kg after 24 hrs
# Assay type: ADME, organism-based, Neoplasm
# Set-up: dose 30 mg/kg
# conditionInfo: read-out: Activity
experimentalReadout: concentration at 24 h

INSERT INTO assay_data (compound, experimentalreadout, result) VALUES
  ('O=C(O)c1ccc(Nc2ncc3c(n2)-c2ccc(Cl)cc2C(c2c(F)cccc2F)=NC3)cc1 [MLN-8054]', 'concentration at 24 h', '> 2000 nM');

====

# testName: Half life in iv dosed rat
# Format: ADME, organism-based
# conditionInfo: in vivo
Reported half-life values for a set of compounds
experimentalReadout: half-life (h)

INSERT INTO assay_data (structureassmiles, recordednumber) VALUES
  ('CCN(CCCOc1ccc2c(Nc3cc(CC(=O)Nc4cccc(F)c4)n[nH]3)ncnc2c1)CCOP(=O)(O)O', 5),
  ('CC(=O)Nc1ccc(Sc2nc(Nc3cc(C)n[nH]3)c3ccccc3n2)cc1', 1);

====

# testName: Clearance in iv infused tumor bearing mouse
# Format: ADME, organism-based
# conditionInfo: in vivo
experimentalReadout: clearance (mL/min/kg)

INSERT INTO assay_data (compound, recordednumber) VALUES
  ('CO[C@@H](C(=O)N1Cc2n[nH]c(NC(=O)c3ccc(N4CCN(C)CC4)cc3)c2C1)c1ccccc1 [DANUSERTIB]', 28.3);

====

# testName: Aqueous solubility at pH 7.4
# Format: physicochemical
experimentalReadout: solubility (µM)

INSERT INTO measurements (structureassmiles, recordednumber) VALUES
  ('CCC(=O)Nc1ccc(Sc2nc(Nc3cc(C)n[nH]3)cc(N3CCOCC3)n2)cc1', 5.4),
  ('CCC(=O)Nc1ccc(Sc2nc(Nc3cc(C)[nH]n3)cc(N3CCN(C)CC3)n2)cc1', 63.4),
  ('CCC(=O)Nc1ccc(Sc2nc(Nc3cc(C)n[nH]3)cc(N3CCNCC3)n2)cc1', 296),
  ('CCC(=O)Nc1ccc(Sc2nc(Nc3cc(C)n[nH]3)cc(N3CCN(C4CC4)CC3)n2)cc1', 12.8),
  ('CCC(=O)Nc1ccc(Sc2nc(Nc3cc(C)n[nH]3)cc(N3CCN(CC)CC3)n2)cc1', 114),
  ('CCC(=O)Nc1ccc(Sc2nc(Nc3cc(C)n[nH]3)cc(N3CCN(C(C)(C)C)CC3)n2)cc1', 221);

====

# measuredTarget: Aurora kinase B (Homo sapiens, UniProt Q96GD4)
# Sequence (Q96GD4 whole entry): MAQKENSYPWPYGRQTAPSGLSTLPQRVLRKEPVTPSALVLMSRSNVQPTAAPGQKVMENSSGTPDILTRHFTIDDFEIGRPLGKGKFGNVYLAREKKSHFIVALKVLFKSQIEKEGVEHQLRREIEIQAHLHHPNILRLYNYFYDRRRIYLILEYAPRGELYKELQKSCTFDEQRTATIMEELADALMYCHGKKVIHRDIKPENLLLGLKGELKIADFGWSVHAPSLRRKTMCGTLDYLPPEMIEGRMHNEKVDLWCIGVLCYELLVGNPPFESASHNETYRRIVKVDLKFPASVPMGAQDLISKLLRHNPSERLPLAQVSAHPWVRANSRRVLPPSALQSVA
# testName: Inhibition of aurora B in human SW620 cells assessed as inhibition of histone H3 phosphorylation
# Type: cell-based, SW-620
pIC50: −log10 of the molar value.
Reported pIC50 values for a set of compounds
experimentalReadout: pIC50

INSERT INTO measurements (structureassmiles, experimentalreadout, inequalitysign, recordednumber) VALUES
  ('CCN(CCO)CCCOc1cc2ncnc(Nc3cc(CC(=O)Nc4cccc(F)c4F)[nH]n3)c2cc1OC', 'pIC50', '=', 7.35),
  ('CCN(CCO)CCCOc1cc2ncnc(Nc3cc(CC(=O)Nc4cccc(F)c4)[nH]n3)c2cc1OC', 'pIC50', '=', 6.57),
  ('CCCN(CCO)CCCOc1cc2ncnc(Nc3cc(CC(=O)Nc4cccc(F)c4)[nH]n3)c2cc1OC', 'pIC50', '=', 6.54),
  ('COc1cc2c(Nc3cc(CC(=O)Nc4cccc(F)c4F)[nH]n3)ncnc2cc1OCCCN(CCO)CC(C)C', 'pIC50', '>', 9.00);
